# System: HCT-8
# assay.method.text: in vitro screen against human tumor cell line HCT-8 (colon), GI50
# Assay type: cell-based
# experimental.conditions: Homo sapiens, HCT-8, Example 2, Table 3, 13-aza-cryptopleurines; read-out: GI50 HCT-8
Recorded GI50, one value per entry.
Report the figure in µM without appending any unit label.

Here's what some known entries look like.
COc1ccc2c3c(c4cc(OC)c(OC)cc4c2c1)C[C@H]1CN(CC2CC2)CCN1C3
0.25
COc1ccc2c3c(c4cc(OC)c(OC)cc4c2c1)C[C@H]1CN(CCO)CCN1C3
7.41
CCN1CCN2Cc3c(c4cc(OC)c(OC)cc4c4cc(OC)ccc34)C[C@H]2C1 [Compound 8b, (S)-13-aza-13N-ethyl-cryptopleurine]
9.45

Look up GI50: COc1ccc2c3c(c4cc(OC)c(OC)cc4c2c1)C[C@H]1CN(C2CC2)CCN1C3 13

###

Recorded melting point, one value per entry.

COc1ccc2c3c(c4cc(OC)c(OC)cc4c2c1)C[C@H]1CN(C2CC2)CN1C3 [Compound 3g, (S)-12-aza-12N-cyclopropyl-antofine]
204 to 206 °C

Look up melting point: COC(=O)CN1CCN2Cc3c(c4cc(OC)c(OC)cc4c4cc(OC)ccc34)C[C@H]2C1 111 to 113 °C

Look up melting point: COc1ccc2c3c(c4cc(OC)c(OC)cc4c2c1)C[C@H]1CN(C)CN1C3 [Compound 3h, (S)-12-aza-12N-methyl-antofine] 182 to 184 °C

Look up melting point: COc1ccc2c3c(c4cc(OC)c(OC)cc4c2c1)CC1CN(CC(C)C)CCN1C3 (stereo in doubt) [Compound 8m, (R)-13-aza-13N-isobutyl-cryptopleurine] 175 to 177 °C

Look up melting point: COc1ccc2c3c(c4cc(OC)c(OC)cc4c2c1)C[C@H]1CN(C(C)=O)CCN1C3 [Compound 8d, (S)-13-aza-13N-acetyl-cryptopleurine] 123 to 125 °C

Look up melting point: COC(=O)N1CCN2Cc3c(c4cc(OC)c(OC)cc4c4cc(OC)ccc34)C[C@H]2C1 99 to 101 °C

###

Recorded GI50, one value per entry.
# Tested on: KB
# assay.method.text: in vitro screen against human tumor cell line KB (nasopharyngeal), GI50
# Format: cell-based
# experimental.conditions: Homo sapiens, KB, Example 2, Table 2, 12-aza-antofines; read-out: GI50 KB
Report the figure in µM without appending any unit label.

Look up GI50: CCCN1C[C@@H]2Cc3c(c4ccc(OC)cc4c4cc(OC)c(OC)cc34)CN2C1 [Compound 3c, (S)-12-aza-12N-propyl-antofine] 6.64

Look up GI50: COc1ccc2c3c(c4cc(OC)c(OC)cc4c2c1)CC1CN(Cc2ccccc2)CN1C3 (stereo in doubt) [Compound 3j, (R)-12-aza-12N-benzyl-antofine] 3.41

Look up GI50: COc1ccc2c3c(c4cc(OC)c(OC)cc4c2c1)C[C@H]1CN(C2CC2)CN1C3 [Compound 3g, (S)-12-aza-12N-cyclopropyl-antofine] 2.71

Look up GI50: COc1ccc2c3c(c4cc(OC)c(OC)cc4c2c1)C[C@H]1CN(CCO)CN1C3 [Compound 3e, (S)-12-aza-12N-hydroxylethyl-antofine] 7.83

###

measure.name: melting point

Here's what some known entries look like.
COc1ccc2c3c(c4cc(OC)c(OC)cc4c2c1)C[C@H]1CN(CCO)CCN1C3 [Compound 8j]
266 °C (dec.)
COc1ccc2c3c(c4cc(OC)c(OC)cc4c2c1)CC1CCN(CC(C)C)CN1C3 (stereo in doubt) [Compound 11g, (R)-12-aza-12N-isobutyl-cryptopleurine]
175 to 177 °C
COc1ccc2c3c(c4cc(OC)c(OC)cc4c2c1)CC1CN(Cc2ccccc2)CCN1C3 (stereo in doubt) [Compound 8n, (R)-13-aza-13N-benzyl-cryptopleurine]
86 to 88 °C

Look up melting point: COc1ccc2c3c(c4cc(OC)c(OC)cc4c2c1)C[C@H]1CCN(Cc2ccccc2)CN1C3 [Compound 11d, (S)-12-aza-12N-benzyl-cryptopleurine] 211 to 213 °C

Look up melting point: COc1ccc2c3c(c4cc(OC)c(OC)cc4c2c1)C[C@H]1CN(CC2CC2)CCN1C3 [Compound 8g] 160 to 162 °C

Look up melting point: COc1ccc2c3c(c4cc(OC)c(OC)cc4c2c1)C[C@H]1CN(Cc2ccccc2)CN1C3 [3a] 113 to 115 °C
